# assayed_system: Cytochrome P450 3A4 (Homo sapiens)
# assay_remarks: qHTS Assay for Inhibitors and Substrates of Cytochrome P450 3A4 (AID 884); also: nearly all actives have a fitted effect of over 50% in size
# protocol_conditions: recombinant CYP3A4, Luciferin-PPXE luminescence; series mostly up to 57.1 µM
Results filed as inconclusive are left out. The source made the active and inactive calls. Calls follow the shape of the dose curve; as a rule, active = well fitted inhibition curve with a large enough effect; inconclusive = small, poorly fitted or top-dose-only effect; inactive = no such curve, though single readings can be large or run the other way.
Permitted responses: active, inactive

*Q* How did this test come out for O=[N+]([O-])c1ccccc1S(=O)(=O)NCC1CCC(CNCC2CCc3ccccc3C2)CC1 (centres undefined) ?
*A* inactive

*Q* How did this test come out for CCC1=C(OC(=O)N(CC)CC)N2C(=O)OC(=NCC3CC3)[C@]2(C)[C@H]2C1=CC[C@H]1C(=O)N(CC(=O)OC)C(=O)[C@H]12 ?
*A* active

*Q* How did this test come out for CCC1=C2CC[C@H]3C(=O)N(CC)C(=O)[C@H]3[C@H]2[C@@]2(Cc3ccccc3)C(=NCc3ccccc3)OC(=O)N2C1=O ?
*A* active

*Q* How did this test come out for O=C(O)c1cc(C(F)(F)F)nc2c(C(F)(F)F)cccc12 ?
*A* inactive
